System: DU-145 prostate
Test: NCI-60 one-dose screen, 48 h (100 = growth as untreated, 0 = no growth, -100 = all killed)
Conditions: 10 µM unless noted
About 83,000 compounds went through this panel and 20% of them were active in at least one assay; those are over-represented in the sample as a whole.
Could you please report measured growth for the items listed next?
Give bare numbers, in %.

compound	systemName	experimentalResult
COc1ccc(OC)c(-c2c(C#N)c(-c3ccc(Cl)cc3)nc3c2c(-c2ccccc2)nn3-c2ccccc2)c1	DU-145 prostate	99.1

Would you mind listing growth for each of the following compounds?
1. COc1ccc(NC(=O)CSc2nc(C)c(C(C)=O)n2-c2ccc(Cl)cc2)cc1
2. C=CCn1c(C)nc2cc(Nc3nc(N4CCCC4)nc4ccccc34)ccc21
3. CC(=O)O[C@]1(C(C)=O)CCC2C3C[C@H](C)C4=CC(=O)CC[C@]4(C)C3CC[C@@]21C (stereo not given in full)
4. O=C(NCCCNc1cc(-c2cn(-c3ccccc3)nc2-c2cccc(O)c2)ccn1)c1ccc(F)cc1

**Result**
1: 116; 2: 73.8; 3: 117; 4: 48.4

* * *

Tested on: UACC-257 melanoma
Assay: NCI-60 one-dose screen, 48 h (100 = growth as untreated, 0 = no growth, -100 = all killed)
Conditions: 10 µM unless noted
This is part of a sample that, as a whole, favours compounds with a hit. Of some 83,000 tested, about 20% had one in any assay.
recordedEndpoint: growth (%)
Numbers only, in %.

These solved cases illustrate the format of a correct answer.
molecule	systemName	unitInfo	growth
C[C@H](NC(=O)[C@@H]1CSSC[C@@H](NC(=O)c2nc3ccccc3cc2O)C(=O)NCC(=O)N1C)c1ccccc1	UACC-257 melanoma	%	60.9
COc1ccc(-c2cc(-c3cc(OC)ccc3OC)nc(SCC(=O)c3ccccc3)c2C#N)cc1	UACC-257 melanoma	%	101

Would you mind listing growth for each of the following molecules?
1. CCOC(CN=Cc1cc(C)c2[nH]c3ccccc3c2c1C)OCC
2. CC1(c2ccccc2)NC(=O)N(NC(=O)CSc2nc(-c3cccs3)nc3ccccc23)C1=O (stereo not given)

**Result**
1: 90.3; 2: 83.5

**Query** Find the measured growth of O=c1[nH][n+](-c2ccc(Cl)cc2)no1 and report it.
**Result** 64.9

* * *

Test system: SN12C renal
Assay: NCI-60 one-dose screen, 48 h
Conditions: 10 µM unless noted
About 83,000 compounds went through this panel and 20% of them were active in at least one assay; those are over-represented in the sample as a whole. The source made the active and inactive calls. Rule for the calls: active = growth percent below 10; inactive = the rest.
Hello, when you answer, please use one of the following outcomes: active, inactive

Take a look at these entries with their results.
structureString	systemName	group
Cn1cc(-c2csc(-c3cccc(F)c3)n2)c2cccnc21	SN12C renal	active
COc1ccc(-c2nc(SCCC(C)C)nc(N/N=C\c3ccccc3O)c2C#N)cc1	SN12C renal	inactive
Cc1cc(=O)[nH]c(N=Nc2c(O)[nH]c3ccccc23)n1	SN12C renal	inactive
COc1ccc(NC(=O)CSc2nc(C)c(C(C)=O)n2-c2ccc([N+](=O)[O-])cc2)cc1	SN12C renal	inactive

Could you now look at the following compound, please?
**Query** How was Cc1cc(Cl)ccc1Nc1nc(C(F)(F)F)ccc1C(=O)N/N=C/c1ccc(N(C)C)cc1 classified in this test?
**Result** inactive

* * *

System: IGROV1 ovarian
Assay: NCI-60 one-dose screen, 48 h
Settings: 10 µM unless noted
This is part of a sample that, as a whole, favours compounds with a hit. Of some 83,000 tested, about 20% had one in any assay. Activity calls are given as the source filed them. The calls were made as follows: active = growth percent below 10; inactive = the rest.
Hello, when you answer, please use one of the following outcomes: y (active), n (inactive)

compound	group
O=C(O)c1ccc2c(c1Cl)C(=O)c1ccccc1C2=O	n

**Query** How was C[C@H](NC(=O)[C@@H]1CSSC[C@@H](NC(=O)c2nc3ccccc3cc2O)C(=O)NCC(=O)N1C)c1ccccc1 classified in this test?
**Result** n

**Query** How was O=C(CCCCCCN1CC(=O)N2[C@@H](c3ccccc3Cl)c3[nH]c4ccccc4c3C[C@H]2C1=O)NO classified in this test?
**Result** n

**Query** How was COc1cc(OC)cc(C2CC(=O)Nc3c2c(C)nn3-c2nc3ccccc3[nH]2)c1 (stereo not drawn) classified in this test?
**Result** n

**Query** How was COc1ccc(NC(=O)c2nc(-c3cc(OC)c(OC)c(OC)c3)n(-c3cccc4ccccc34)n2)cc1OC classified in this test?
**Result** n

**Query** How was Cc1ccc(S(=O)(=O)N/N=C\c2cc(Cl)ccc2O)cc1 classified in this test?
**Result** n

**Query** How was COC(=O)[C@]12CC[C@@H](C)[C@H](C)[C@@H]1C1=CC[C@@H]3[C@@]4(C)C(C=O)=C[C@@](C)(COC(=O)/C=C/c5ccccc5)[C@@H]4[C@H](O)C[C@@]3(C)[C@]1(C)CC2 classified in this test?
**Result** n

**Query** How was COc1cc(-c2nn(-c3ccccc3)cc2-c2ccnc(NCCNS(=O)(=O)c3ccc(Cl)cc3)n2)ccc1Cl classified in this test?
**Result** n

**Query** How was COc1ccc(Nc2nnc(SCc3ccccc3F)s2)cc1 classified in this test?
**Result** y

**Query** How was O=c1ccn2nc3ccccc3c2[nH]1 classified in this test?
**Result** n

* * *

System: A498 renal
Assay: NCI-60 one-dose screen, 48 h
Settings: 10 µM unless noted
This is part of a sample that, as a whole, favours compounds with a hit. Of some 83,000 tested, about 20% had one in any assay. Calls of active or inactive are those of the source. Rule for the calls: active = growth percent below 10; inactive = the rest.
Hello, when you answer, please use one of the following outcomes: active, inactive

Take a look at these entries with their results.
compound	group
CNC(=O)c1cc(Oc2cccc3nc(Nc4ccc(F)c(Cl)c4)ccc23)ccn1	inactive
Cc1ccc(CCC(=O)Nc2ncc(Cc3cc(Cl)ccc3Cl)s2)o1	active
Cc1cc(O)c(C2=NN(c3ccc(S(N)(=O)=O)cc3)C(c3ccccc3Cl)C2)cc1Cl (stereo unspecified)	inactive
NNC(=O)c1nc(N)n(-c2ccc(S(N)(=O)=O)cc2)n1	inactive
CN1CCN(C(=O)c2c3c(n4ccccc24)C(=O)c2ncccc2C3=O)CC1	inactive

**Query** How was Cc1ccc(S(=O)(=O)Oc2cc(OS(=O)(=O)c3ccc(C)cc3)cc(OS(=O)(=O)c3ccc(C)cc3)c2)cc1 classified in this test?
**Result** inactive

**Query** How was CCc1ccccc1-n1c(N)c(C#N)c(-c2ccc(N(C)C)cc2)c(C#N)c1=O classified in this test?
**Result** inactive

**Query** How was C(=N\Nc1ncc(-c2cc3cc4c(cc3o2)OCO4)s1)/c1ccco1 classified in this test?
**Result** inactive

**Query** How was COC(=O)CCC1=C(C)C2=NC1=CC1=NC(=CC3=NC(=Cc4[nH]c(/c(=C(/C)O)c4C)=C2)C(C(C)=O)=C3C)C(C)=C1CCC(=O)OC classified in this test?
**Result** inactive

**Query** How was CN(C)CC1=NC2SC=C(c3ccccc3)C2C(=O)N1CC#N (stereo unspecified) classified in this test?
**Result** inactive

**Query** How was CCOC(=O)c1c(/C=C/C(=O)O)nc2ccccc2c1/C=C/c1ccccc1 classified in this test?
**Result** active

* * *

Could you please report measured growth for the items listed next?
Tested on: SK-MEL-28 melanoma
Test: NCI-60 one-dose screen, 48 h (100 = growth as untreated, 0 = no growth, -100 = all killed)
Conditions: 10 µM unless noted
This is part of a sample that, as a whole, favours compounds with a hit. Of some 83,000 tested, about 20% had one in any assay. Activity calls are given as the source filed them. The calls were made as follows: active = growth percent below 10; inactive = the rest.

These solved cases illustrate the format of a correct answer.
compound	growth
CCOC(=O)c1ccc(N2NC(=O)/C(=C/c3ccc([N+](=O)[O-])o3)C2=O)cc1	108% (inactive)
N#Cc1c(-c2ccccc2)cc(-c2ccc(Nc3nc(Nc4ccc(F)cc4)nc(Nc4ccc(F)cc4)n3)cc2)nc1N	90.1% (inactive)
CCC(CO)Nc1nc2ccc(Cl)cc2c2ccccc12 (stereo not given)	90.8% (inactive)
CC(C)CC(NC(=O)CN(Cc1ccccc1)S(C)(=O)=O)C(=O)O (stereo not given)	100% (inactive)
CCOC(=O)C/C(C)=N\NC(=O)c1ccncc1	116% (inactive)
COc1ccc(C2=Nc3c(N)ncnc3NC(c3ccc4c(c3)OCO4)C2)cc1 (stereo not given)	101% (inactive)
Cc1cc(NCc2cc(Nc3ccnc4cc(Cl)ccc34)ccc2F)nc(N2CCN(c3ccccc3)CC2)n1	69.7% (inactive)
COc1cc(/C=N/n2c(CN3CCOCC3)nc3ccccc3c2=O)cc(OC)c1OC	99.3% (inactive)
O=C(NCCCNc1cc(-c2cn(-c3ccccc3)nc2-c2cccc(O)c2)ccn1)c1cccc(O)c1	77.6% (inactive)

Now take the following compound into account.
**Query** Lab note: SK-MEL-28 melanoma assay, enter growth for COc1nc2c(c(=O)n1C)CN(c1ccccc1)C(=O)CN2C here
**Result** 90.4% [100 µM] (inactive)
